test system: SK-OV-3; test: Antitumor activity against human SK-OV-3 cells assessed as reduction in cell viability incubated for 72 hrs by CCK8 assay; type: functional, cell-based; conditions: SK-OV-3, 72 h
Mark condition met for IC50 under 5 nM, condition not met if at or over.

Would you please look over these solved cases?
COc1ccc2c(c1)CCCN2c1nc(NCc2ccccc2)nc2ccc(F)cc12 : condition not met
COc1ccc2c(c1)CCCN2c1nc(NC(C)C)nc2ccc(F)cc12 : condition not met
COc1ccc(Nc2nc(N3CCCc4cc(OC)ccc43)c3cc(F)ccc3n2)cc1 : condition not met
COc1ccc2c(c1)CCCN2c1nc(NC2CC2)nc2ccc(F)cc12 : condition met
COc1ccc(-c2nc(N3CCCc4cc(OC)ccc43)c3cc(F)ccc3n2)cc1 : condition not met

Ask: Lab note: confirm whether the reported IC50 for this compound is below 5 nM, equality not counting. compound: COc1ccc2c(c1)CCCN2c1nc(-c2cc(OC)c(OC)c(OC)c2)nc2ccc(F)cc12
Reply: condition not met

Ask: Lab note: confirm whether the reported IC50 for this compound is below 5 nM, equality not counting. compound: COc1ccc2c(c1)CCCN2c1nc(Cl)nc2ccc(F)cc12
Reply: condition not met

Ask: Lab note: confirm whether the reported IC50 for this compound is below 5 nM, equality not counting. compound: COc1ccc2c(c1)CCCN2c1nc(N)nc2ccc(F)cc12
Reply: condition met

Ask: Lab note: confirm whether the reported IC50 for this compound is below 5 nM, equality not counting. compound: COc1ccc2c(c1)CCCN2c1nc(Cl)nc2ccc(Cl)cc12
Reply: condition not met

Ask: Lab note: confirm whether the reported IC50 for this compound is below 5 nM, equality not counting. compound: COc1ccc2c(c1)CCCN2c1nc(N2CCOCC2)nc2ccc(F)cc12
Reply: condition not met

Value source: ChEMBL document CHEMBL6074686
